Measured Kd, listed per entry.
system: FLT3 (Homo sapiens)
Construct: made in house
Sequence (P36888 27-993): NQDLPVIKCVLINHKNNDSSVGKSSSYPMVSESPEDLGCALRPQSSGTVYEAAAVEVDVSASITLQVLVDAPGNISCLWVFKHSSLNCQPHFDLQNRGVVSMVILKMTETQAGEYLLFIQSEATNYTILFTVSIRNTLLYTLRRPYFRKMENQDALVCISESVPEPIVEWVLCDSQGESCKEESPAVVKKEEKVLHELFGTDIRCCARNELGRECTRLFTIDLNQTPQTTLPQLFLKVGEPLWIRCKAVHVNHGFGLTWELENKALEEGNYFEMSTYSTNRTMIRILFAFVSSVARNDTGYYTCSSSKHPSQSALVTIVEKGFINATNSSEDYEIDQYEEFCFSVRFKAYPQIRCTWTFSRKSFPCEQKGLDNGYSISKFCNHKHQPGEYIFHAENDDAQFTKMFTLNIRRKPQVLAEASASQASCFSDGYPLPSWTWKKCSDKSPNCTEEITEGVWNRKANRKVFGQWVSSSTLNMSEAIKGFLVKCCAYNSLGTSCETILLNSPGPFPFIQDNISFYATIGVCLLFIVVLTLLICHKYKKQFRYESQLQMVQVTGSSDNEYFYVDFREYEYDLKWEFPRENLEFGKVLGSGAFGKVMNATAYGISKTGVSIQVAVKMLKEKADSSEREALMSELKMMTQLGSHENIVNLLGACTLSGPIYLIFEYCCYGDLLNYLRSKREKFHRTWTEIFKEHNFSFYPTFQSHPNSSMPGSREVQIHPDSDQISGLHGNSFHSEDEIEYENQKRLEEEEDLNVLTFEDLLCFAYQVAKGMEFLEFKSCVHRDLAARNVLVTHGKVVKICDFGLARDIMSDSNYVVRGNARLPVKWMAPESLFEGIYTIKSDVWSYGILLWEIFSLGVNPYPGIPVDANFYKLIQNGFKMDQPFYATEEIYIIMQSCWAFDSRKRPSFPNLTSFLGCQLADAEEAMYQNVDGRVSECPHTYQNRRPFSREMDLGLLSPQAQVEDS
assay_overview: Competition binding assay, FLT3 Kd
conditions_used: competition binding
Where a name gives a salt, the structure may show the parent alone.

For orientation, consider the following solved cases.
>  <compound>
CS(=O)(=O)c1ccc2c(c1)ncn2Cc1ccc2nc(N[C@@H]3CCCC[C@H]3O)sc2c1 [Example 112]

>  <assay_readout>
Kd

>  <measured_value>
1000 to 5000 nM

$$$$
>  <compound>
O[C@H]1[C@@H](O)CCC[C@H]1Nc1nc2ccc(Cn3cnc4cc(F)cnc43)cc2s1 [Example 228]

>  <assay_readout>
Kd

>  <measured_value>
> 5000 nM

$$$$
>  <compound>
O=C(O)/C=C/c1ccc2c(c1)ncn2Cc1ccc2nc(N[C@@H]3CCCC[C@H]3O)sc2c1 [Example 224]

>  <assay_readout>
Kd

>  <measured_value>
200 to 1000 nM

$$$$
>  <compound>
O=C1CCCCN1c1ccc2c(c1)ncn2Cc1ccc2nc(N[C@@H]3CCCC[C@H]3O)sc2c1 [Example 210]

>  <assay_readout>
Kd

>  <measured_value>
> 5000 nM

$$$$
>  <compound>
Nc1nccn(Cc2ccc3nc(N[C@@H]4CCCC[C@H]4O)sc3c2)c1=O [Example 220, acetate salt]

>  <assay_readout>
Kd

>  <measured_value>
> 5000 nM

$$$$
>  <compound>
O[C@@H]1CCCC[C@H]1Nc1nc2c(F)cc(Cn3cnc4cccnc43)c(F)c2s1 [Example 168]

>  <assay_readout>
Kd

>  <measured_value>
1000 to 5000 nM

$$$$
>  <compound>
CC(O)c1ccn2c(Cc3ccc4nc(N[C@@H]5CCCC[C@H]5O)sc4c3)cnc2c1 (some centres unmarked) [Example 201]

>  <assay_readout>
Kd

>  <measured_value>
1000 to 5000 nM

$$$$
>  <compound>
CN1CCN(c2ccc3ncc(Cc4ccc5nc(N[C@@H]6CCCC[C@H]6O)sc5c4)n3n2)CC1 [Example 178]

>  <assay_readout>
Kd

>  <measured_value>
200 to 1000 nM

$$$$

Per the record, Cn1nnc(-c2ccc3c(c2)ncn3Cc2ccc3nc(N[C@@H]4CCCC[C@H]4O)sc3c2)n1 [Example 227] has Kd of 1000 to 5000 nM

Looking up N#CCOc1ccc2c(c1)ncn2Cc1ccc2nc(N[C@@H]3CCCC[C@H]3O)sc2c1 [Example 196] , I found its Kd recorded as 200 to 1000 nM

Kd measured on N#Cc1cc2ncn(Cc3ccc4nc(N[C@@H]5CCCC[C@H]5O)oc4c3)c2cc1Cl [Example 195] = 1000 to 5000 nM

C=Cc1ccc2c(c1)ncn2Cc1ccc2nc(N[C@@H]3CCCC[C@H]3O)sc2c1 [Example 183] has a reported Kd of 200 to 1000 nM

Sure, the documented Kd for CS(=O)(=O)c1ccc2ncn(Cc3ccc4nc(N[C@@H]5CCCC[C@H]5O)sc4c3)c2n1 [Example 106] is 200 to 1000 nM

So for CC(=NO)c1ccn2c(Cc3ccc4nc(N[C@@H]5CCCC[C@H]5O)sc4c3)cnc2c1 [Example 202] , the logged Kd turned out to be 1000 to 5000 nM

The reported Kd of the compound O[C@@H]1[C@H](O)CCC[C@H]1Nc1nc2ccc(Cn3cnc4cc(F)cnc43)cc2s1 [Example 193] was 1000 to 5000 nM

Noted for CON=C(C)c1ccn2c(Cc3ccc4nc(N[C@@H]5CCCC[C@H]5O)sc4c3)cnc2c1 [Example 204] : its Kd reads 1000 to 5000 nM

// OC[C@H]1CCC[C@@H](Nc2nc3ccc(Cn4cnc5cc(F)cnc54)cc3s2)C1 [Example 194] : Kd value = 200 to 1000 nM

Kindly note the recorded Kd for O[C@@H]1CCCC[C@H]1Nc1nc2ccc(Cc3cnc4cc(-n5nccn5)ccn34)cc2s1 [Example 215] , which is 1000 to 5000 nM

The reported Kd of the compound C#Cc1ccc2c(c1)ncn2Cc1ccc2nc(N[C@@H]3CCCC[C@H]3O)sc2c1 [Example 121] was 1000 to 5000 nM

Measured Kd, O[C@@H]1CCCC[C@H]1Nc1nc2ccc(Cn3cnc4cc(-n5ccnc5)ccc43)cc2s1 [Example 226] : 200 to 1000 nM

For record O[C@@H]1[C@H](O)CCC[C@H]1Nc1nc2ccc(Cc3cnc4cc(-n5cccn5)ccn34)cc2s1 [Example 229] the listed Kd is 200 to 1000 nM

What the record says about O[C@@H]1CCCC[C@H]1Nc1nc2ccc(Cn3cnc4cc(-n5cccn5)cnc43)cc2s1 [Example 141] : Kd is 200 to 1000 nM

In plain terms, O[C@@H]1CCCC[C@H]1Nc1nc2ccc(Cn3cnc4cc(F)ccc43)cc2s1 [Example 129] has a documented Kd of 1000 to 5000 nM

Data point: C=Cc1ccn2c(Cc3ccc4nc(N[C@@H]5CCCC[C@H]5O)sc4c3)cnc2c1 [Example 216] ; Kd = 1000 to 5000 nM

---

system: CSF1R (Homo sapiens)
Sequence (P07333 20-972): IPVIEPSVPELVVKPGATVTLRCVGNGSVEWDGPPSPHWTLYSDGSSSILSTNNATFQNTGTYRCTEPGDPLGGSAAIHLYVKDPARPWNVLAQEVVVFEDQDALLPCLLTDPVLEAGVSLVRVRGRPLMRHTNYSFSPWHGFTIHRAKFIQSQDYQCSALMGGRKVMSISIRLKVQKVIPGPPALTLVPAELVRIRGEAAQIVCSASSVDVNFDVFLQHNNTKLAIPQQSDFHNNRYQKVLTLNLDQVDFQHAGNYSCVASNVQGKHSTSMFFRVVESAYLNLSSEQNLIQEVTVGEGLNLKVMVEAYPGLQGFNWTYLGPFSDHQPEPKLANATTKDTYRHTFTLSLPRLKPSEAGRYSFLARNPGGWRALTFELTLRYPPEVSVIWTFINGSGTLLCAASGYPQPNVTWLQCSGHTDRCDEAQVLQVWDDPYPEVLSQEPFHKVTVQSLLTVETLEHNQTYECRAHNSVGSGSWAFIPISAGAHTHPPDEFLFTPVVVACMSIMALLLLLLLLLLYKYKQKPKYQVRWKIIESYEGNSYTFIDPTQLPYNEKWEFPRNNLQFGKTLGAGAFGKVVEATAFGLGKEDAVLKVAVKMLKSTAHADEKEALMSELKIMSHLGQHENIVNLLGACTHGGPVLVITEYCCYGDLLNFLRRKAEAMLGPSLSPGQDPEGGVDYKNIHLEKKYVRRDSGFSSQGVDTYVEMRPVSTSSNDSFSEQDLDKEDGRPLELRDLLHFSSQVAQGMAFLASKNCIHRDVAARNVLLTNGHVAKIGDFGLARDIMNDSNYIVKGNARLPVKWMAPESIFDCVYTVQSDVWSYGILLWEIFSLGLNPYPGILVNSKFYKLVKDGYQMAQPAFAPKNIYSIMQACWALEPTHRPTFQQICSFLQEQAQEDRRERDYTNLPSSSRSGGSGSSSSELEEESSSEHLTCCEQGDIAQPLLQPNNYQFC
assay_overview: HEK293 CSF1R phosphorylation MSD assay
Format: cell-based
Set-up: expressed in transfected cells; host or cells: HEK293
conditions_used: HEK293 cells, M-CSF stimulated CSF1R phosphorylation, MSD; read-out: HEK293 pCSF1R M-CSF MSD:IC50
IC50 listing for selected compounds.

// worked examples, IC50 included
>  <structure_smiles_string>
N#Cc1cnc2c(c1)ncn2Cc1ccc2nc(N[C@@H]3CCCC[C@H]3CO)sc2c1

>  <system>
CSF1R (Homo sapiens)

>  <IC50>
200 to 500 nM

$$$$
>  <structure_smiles_string>
O[C@@H]1[C@H](O)CCC[C@H]1Nc1nc2ccc(Cc3cnc4cc(-n5nccn5)ccn34)cc2s1

>  <system>
CSF1R (Homo sapiens)

>  <IC50>
≤ 50 nM

$$$$
>  <structure_smiles_string>
Cc1cc(Br)cc2ncn(Cc3ccc4nc(N[C@@H]5CCCC[C@H]5O)sc4c3)c12

>  <system>
CSF1R (Homo sapiens)

>  <IC50>
> 500 nM

$$$$
>  <structure_smiles_string>
O[C@@H]1CCCC[C@H]1Nc1nc2ccc(Cn3cnc4cnc(C(F)(F)F)nc43)cc2s1

>  <system>
CSF1R (Homo sapiens)

>  <IC50>
200 to 500 nM

$$$$
>  <structure_smiles_string>
O[C@@H]1CCCC[C@H]1Nc1nc2ccc(Cc3cnc4cnccn34)cc2s1

>  <system>
CSF1R (Homo sapiens)

>  <IC50>
50 to 200 nM

$$$$

IC50 reported for this compound CS(=O)(=O)c1ccc2ncn(Cc3ccc4nc(N[C@@H]5CCCC[C@H]5O)sc4c3)c2c1 : 200 to 500 nM

Lookup result for O[C@@H]1CCCC[C@H]1Nc1nc2ccc(Cn3cnc4cc(-n5cccn5)ccc43)cc2s1 ; measured IC50: ≤ 50 nM

Documented IC50 of O[C@@H]1CCCC[C@H]1Nc1nc2ccc(Cn3cnc4cc(OC(F)(F)F)ccc43)cc2s1 : 200 to 500 nM

---

system: CSF1R (Homo sapiens)
assay_overview: HEK293 CSF1R phosphorylation MSD assay
Assay type: cell-based
Design: expressed in transfected cells; host or cells: HEK293
conditions_used: HEK293 cells, M-CSF stimulated CSF1R phosphorylation, MSD; read-out: HEK293 pCSF1R M-CSF MSD:IC50
pIC50: −log10 of the molar value.
assay_readout: pIC50

>  <compound>
N#Cc1cnc2c(c1)ncn2Cc1ccc2nc(N[C@@H]3CCCC[C@H]3O)oc2c1 [Example 124]

>  <pIC50>
6.70 to 7.30

$$$$
>  <compound>
O[C@@H]1CCCC[C@H]1Nc1nc2ccc(Cc3cnc4sccn34)cc2s1 [Example 157]

>  <pIC50>
< 6.30

$$$$
>  <compound>
O[C@@H]1CCCC[C@H]1Nc1nc2c(Br)cc(Cn3cnc4cccnc43)cc2s1 [Example 166]

>  <pIC50>
< 6.30

$$$$

pIC50 in this record for Fc1cnc2c(c1)ncn2Cc1ccc2nc(N[C@@H]3CCCC[C@@H]3Cl)sc2c1 [Example 219] : 6.70 to 7.30

Data point: CC(=O)c1ccc2ncn(Cc3ccc4nc(N[C@@H]5CCCC[C@H]5O)sc4c3)c2c1 [Example 120] ; pIC50 = 6.70 to 7.30

Entry O[C@@H]1CCCC[C@H]1Nc1nc2ccc(Cn3cnc4cc(C5=CCOCC5)ccc43)cc2s1 [Example 174] , pIC50 reported as ≥ 7.30

The reported value for COc1nc2c(cc1C#N)ncn2Cc1ccc2nc(N[C@@H]3CCCC[C@H]3O)sc2c1 [Example 126] in terms of pIC50 is ≥ 7.30

pIC50 measured on CS[C@@H]1CCCC[C@H]1Nc1nc2ccc(Cn3cnc4cc(F)cnc43)cc2s1 [Example 181] = 6.30 to 6.70
